Reported TGI is given for each of the following compounds.
tested on: NCI-H226 lung; experiment: NCI tumour cell line growth inhibition, 48 h

Problem: Retrieve TGI measured for `Cc1ccccc1NC(=O)CC(=O)NNCC(=O)Nc1nnc(-c2ccccc2)s1` and print it.
Result: > 100 µM

Problem: Supply measured TGI of C/C(=C\c1ccccc1)C(O)C(=O)c1nc2ccc(Cl)cc2[nH]c1=O (stereo not drawn) in your reply.
Result: > 100 µM

Continuing:
Problem: # return recorded TGI for entry `Cc1csc(=Nc2ccccc2)n1CCC(O)(P(=O)(O)O)P(=O)(O)O`
Result: > 100 µM

====

system: IGROV1 ovarian; assay: NCI tumour cell line growth inhibition, 48 h
Measured GI50 values are reported for all entries that follow.

Problem: Tell me GI50 reported for `Oc1c(Br)cc(Cl)cc1C(c1cc(Cl)cc(Br)c1O)C(Cl)(Cl)Cl`
Result: 3.95 µM

Problem: Item CN(C)CCCC1(c2ccc(F)cc2)OCc2cc(-c3csc4ccccc34)ccc21 (stereo not drawn) : provide GI50
Result: 1.35 µM

Problem: Return value of GI50 for input `O=c1c(Oc2ccc(F)cc2F)cc2cnc(NC3CCOCC3)nc2n1C1CC1` , no commentary.
Result: > 25 µM

Problem: Report GI50, nothing else, for this molecule: `COc1cc(/C=C/c2cc(/C=C/c3ccc(O)c(OC)c3)n(C(=O)Nc3ccc(C)cc3)n2)ccc1O`
Result: 0.667 µM

Others:
Problem: Return the recorded GI50 value; entry: `O=C(O)CSc1cc(NS(=O)(=O)c2ccc(Br)cc2)c2ccccc2c1O`
Result: 3.03 µM

The measured values listed here are drawn from PubChem BioAssay (NCI).
